Numbers sourced from ChEMBL document CHEMBL4477222.

- test_summary: Protein binding in dog plasma at 1 uM
- Type: ADME, cell-free, Canis lupus familiaris
- condition_parameters: read-out: PPB (converted)

{"columns": ["smiles_repr", "fraction unbound at 1 µM"],
 "data": [
  ["CC(C)(C)C#Cc1cc(N(CC(=O)N2CCOCC2)C(=O)[C@H]2CC[C@H](C)CC2)c(C(=O)O)s1", 0.025]
]}

* * *

- test_summary: Protein binding in monkey plasma at 1 uM
- Type: ADME, cell-free, Macaca mulatta
- condition_parameters: rhesus monkey, read-out: PPB (converted)

{"columns": ["smiles_repr", "fraction unbound at 1 µM"],
 "data": [
  ["CC(C)(C)C#Cc1cc(N(CC(=O)N2CCOCC2)C(=O)[C@H]2CC[C@H](C)CC2)c(C(=O)O)s1", 0.023]
]}

* * *

- test_summary: Metabolic stability in rat liver microsomal S9 fraction assessed as compound remaining at 1 uM after 2 hrs in presence of NADPH/UDPGA
- Assay type: ADME, subcellular
- condition_parameters: read-out: Stability

{"columns": ["smiles_repr", "remaining at 2 h, 1 µM / %"],
 "data": [
  ["CC(C)(C)C#Cc1cc(N(CC(=O)N2CCOCC2)C(=O)[C@H]2CC[C@H](C)CC2)c(C(=O)O)s1", 79]
]}

* * *

- test_summary: Solubility of the compound in potassium phosphate buffer at pH 7
- Format: physicochemical

{"columns": ["smiles_repr", "measure_unit", "solubility"],
 "data": [
  ["CC(C)(C)C#Cc1cc(N(CC(=O)N2CCOCC2)C(=O)[C@H]2CC[C@H](C)CC2)c(C(=O)O)s1", "µg/mL", 1800]
]}

* * *

- test_summary: Metabolic stability in dog hepatocytes assessed as compound remaining at 10 uM after 2 hrs
- Format: ADME, cell-based, Canis lupus familiaris, Hepatocyte
- condition_parameters: read-out: Stability

{"columns": ["smiles_repr", "remaining at 2 h, 10 µM"],
 "data": [
  ["CC(C)(C)C#Cc1cc(N(CC(=O)N2CCOCC2)C(=O)[C@H]2CC[C@H](C)CC2)c(C(=O)O)s1", "70%"]
]}

* * *

- test_summary: AUC (0 to infinity) in dog at 1 mg/kg, iv through bolus administration
- Type: ADME, organism-based, Canis lupus familiaris
- Set-up: dose 1 mg/kg, route intravenous, time infinity
- condition_parameters: in vivo

{"columns": ["smiles_repr", "AUC(0-inf)"],
 "data": [
  ["CC(C)(C)C#Cc1cc(N(CC(=O)N2CCOCC2)C(=O)[C@H]2CC[C@H](C)CC2)c(C(=O)O)s1", "1360 ng·h/mL"]
]}

* * *

- tested_system: RNA-directed RNA polymerase (Hepacivirus hominis, UniProt O39930, M423I)
- test_summary: Inhibition of HCV genotype 1a NS5B M423I mutant
observation_type: EC50 (nM)

{"columns": ["smiles_repr", "measure_unit", "result"],
 "data": [
  ["CC(C)(C)C#Cc1cc(N(C(=O)[C@H]2CC[C@H](C)CC2)[C@H]2CC[C@H](O)CC2)c(C(=O)O)s1", "nM", 30],
  ["CC(C)(C)C#Cc1cc(N(CC(=O)N2CCOCC2)C(=O)[C@H]2CC[C@H](C)CC2)c(C(=O)O)s1", "nM", 89]
]}

* * *

- test_summary: Volume of distribution in steady state in monkey at 1 mg/kg, iv through bolus administration
- Format: ADME, organism-based, Macaca mulatta
- condition_parameters: rhesus monkey, in vivo, read-out: Vdss
observation_type: Vd (L/kg)

{"columns": ["smiles_repr", "result"],
 "data": [
  ["CC(C)(C)C#Cc1cc(N(CC(=O)N2CCOCC2)C(=O)[C@H]2CC[C@H](C)CC2)c(C(=O)O)s1", 0.23]
]}
